Molecular target: Tyrosyl-DNA phosphodiesterase 1 (Homo sapiens, UniProt Q9NUW8)
Sequence (Q9NUW8 whole entry): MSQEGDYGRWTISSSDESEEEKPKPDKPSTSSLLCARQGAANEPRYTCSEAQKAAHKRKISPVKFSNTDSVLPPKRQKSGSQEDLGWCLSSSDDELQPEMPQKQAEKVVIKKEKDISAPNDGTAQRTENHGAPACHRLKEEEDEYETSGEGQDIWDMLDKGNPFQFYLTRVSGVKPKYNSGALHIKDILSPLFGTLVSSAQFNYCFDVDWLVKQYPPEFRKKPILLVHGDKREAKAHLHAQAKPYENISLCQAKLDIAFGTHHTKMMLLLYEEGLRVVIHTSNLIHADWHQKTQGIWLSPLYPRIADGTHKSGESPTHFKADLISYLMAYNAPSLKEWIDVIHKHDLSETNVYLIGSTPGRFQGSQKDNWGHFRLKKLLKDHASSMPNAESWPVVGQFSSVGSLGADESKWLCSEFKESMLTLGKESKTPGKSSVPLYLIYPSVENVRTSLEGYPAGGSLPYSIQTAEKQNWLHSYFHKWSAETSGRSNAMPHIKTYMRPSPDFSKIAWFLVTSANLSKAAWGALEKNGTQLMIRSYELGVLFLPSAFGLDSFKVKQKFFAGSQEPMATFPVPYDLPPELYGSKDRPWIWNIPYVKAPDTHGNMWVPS
Experiment: Inhibition of TDP1 (unknown origin) using 5'-FAM-AGGATCTAAAAGACTT-BHQ-3' as substrate at 100 uM measured after 30 mins by fluorescence assay relative to control
REPORTED PROPERTY: inhibition (%)

> print(dat)
                             smiles.notation  reported.property  value.units  experimental.result
 1  COc1ccc2ccc3c4ccccc4c(=O)n(CCN(C)C)c3c2c1         inhibition            %                    0
 2  COc1cc2c(=O)n(CCN(C)C)c3c4cc5c(cc4ccc3c2cc1OC(C)C)OCO5         inhibition            %                    0
 3  COc1cc2ccc3c4ccc(OC)c(OC)c4c(=O)n(CCN(C)C)c3c2cc1OC         inhibition            %                    0
 4  COc1ccc2c(c1OC)c(=O)n(CCN(C)C)c1c3ccccc3ccc21         inhibition            %                    0
 5  COc1cccc2c(=O)n(CCN(C)C)c3c4ccccc4ccc3c12         inhibition            %                    0
 6  CN(C)CCn1c(=O)c2cc(F)c(F)cc2c2ccc3ccccc3c21         inhibition            %                    0
 7  CN(C)CCn1c(=O)c2cc(O)ccc2c2ccc3ccccc3c21         inhibition            %                    0
 8  COc1ccc2c(c1)c(=O)n(CCN(C)C)c1c3cc4c(cc3ccc21)OCO4         inhibition            %                    0
 9     CN(C)CCn1c(=O)c2ccccc2c2ccc3ccccc3c21         inhibition            %                    0
10  CN(C)CCn1c(=O)c2ccc(Cl)cc2c2ccc3cc4c(cc3c21)OCO4         inhibition            %                    0

* * *

Molecular target: DNA topoisomerase 1 (Homo sapiens)
Assay: Inhibition of recombinant TOP1 (unknown origin) at 1 uM using 3'-[32P]-labeled 117 bp DNA oligonucleotides as substrate incubated for 20 mins by PAGE analysis relative to CPT
The source made the active and inactive calls. No cut-off for these calls is given here.
REPORTED PROPERTY: inhibition

Example entries begin here.
> print(dat)
                            smiles.notation  reported.property  experimental.result
1  CN(C)CCn1c(=O)c2cc([N+](=O)[O-])ccc2c2ccc3cc4c(cc3c21)OCO4         inhibition                  75%
2  COc1ccc2c(=O)n(CCN(C)C)c3c4ccccc4ccc3c2c1OC         inhibition             inactive
3  COc1cc2c(=O)n(CCN(C)C)c3c4ccccc4ccc3c2cc1OC         inhibition                  25%
4  COc1ccc2c(=O)n(CCN(C)C)c3c4cc5c(cc4ccc3c2c1OC)OCO5         inhibition             inactive
5  CN(C)CCn1c(=O)c2cc(O)c(O)cc2c2ccc3cc4c(cc3c21)OCO4         inhibition                  20%
6  COc1cccc2c1ccc1c3ccccc3c(=O)n(CCN(C)C)c21         inhibition                  20%
7  COc1cc2c(cc1OC(C)C)c(=O)n(CCN(C)C)c1c3cc4c(cc3ccc21)OCO4         inhibition             inactive
8  COc1ccc2c(c1OC)c(=O)n(CCN(C)C)c1c3cc4c(cc3ccc21)OCO4         inhibition             inactive
9  CN(C)CCn1c(=O)c2ccc(F)cc2c2ccc3cc4c(cc3c21)OCO4         inhibition                  50%

Now let's try a different one.
# get_value(readout='inhibition', item= `COc1ccc2c(c1O)c(=O)n(CCN(C)C)c1c3cc4c(cc3ccc21)OCO4` )
20%
